Data origin, for the record: ChEMBL document CHEMBL5532695

Molecular target: Phosphatidylinositol 4-kinase beta (Homo sapiens)
Sequence (Q9UBF8 whole entry): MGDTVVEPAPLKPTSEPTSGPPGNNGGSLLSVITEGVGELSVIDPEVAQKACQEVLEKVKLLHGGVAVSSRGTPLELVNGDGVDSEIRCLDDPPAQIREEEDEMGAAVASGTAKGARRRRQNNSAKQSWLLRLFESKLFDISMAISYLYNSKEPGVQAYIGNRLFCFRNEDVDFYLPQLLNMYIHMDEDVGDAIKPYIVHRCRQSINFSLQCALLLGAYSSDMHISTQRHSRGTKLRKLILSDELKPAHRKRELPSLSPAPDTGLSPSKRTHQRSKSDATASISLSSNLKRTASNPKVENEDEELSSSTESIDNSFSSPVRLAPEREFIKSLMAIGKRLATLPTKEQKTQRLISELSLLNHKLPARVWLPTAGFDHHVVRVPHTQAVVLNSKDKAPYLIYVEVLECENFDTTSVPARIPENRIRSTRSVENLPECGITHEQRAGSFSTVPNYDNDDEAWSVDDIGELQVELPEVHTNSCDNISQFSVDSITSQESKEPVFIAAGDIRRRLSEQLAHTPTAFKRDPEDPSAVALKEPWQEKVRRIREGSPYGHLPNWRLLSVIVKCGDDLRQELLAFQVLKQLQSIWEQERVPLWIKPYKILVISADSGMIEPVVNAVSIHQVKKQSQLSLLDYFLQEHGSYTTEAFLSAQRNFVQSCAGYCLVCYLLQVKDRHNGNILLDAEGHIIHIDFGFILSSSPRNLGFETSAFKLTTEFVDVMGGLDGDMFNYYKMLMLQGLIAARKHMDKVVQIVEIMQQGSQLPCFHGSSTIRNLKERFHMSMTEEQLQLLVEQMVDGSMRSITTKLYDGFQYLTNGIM
Experiment: Inhibition of recombinant full length his tagged PI4KB (unknown origin) incubated for 10 mins in presence of ATP by ADP-glo kinase assay
ENDPOINT: IC50

INSERT INTO results (compound_structure, test_target, result_value) VALUES
  ('O=C(Nc1nc(C(F)(F)F)c(-c2csc(Nc3ccc(O)c(C(=O)O)c3)n2)s1)c1ccccc1', 'Phosphatidylinositol 4-kinase beta (Homo sapiens)', 'Not Active'),
  ('CC(C)(C)C(=O)Nc1nc(C(F)(F)F)c(-c2c[nH]c(Nc3cccc(C(F)(F)F)c3)n2)s1', 'Phosphatidylinositol 4-kinase beta (Homo sapiens)', 'Not Active'),
  ('COC(=O)c1cc(Nc2nc(-c3sc(NC(=O)C(C)(C)C)nc3C(F)(F)F)cs2)cc(C(F)(F)F)c1', 'Phosphatidylinositol 4-kinase beta (Homo sapiens)', 'Not Active'),
  ('COC(=O)c1cc(Nc2nc(-c3sc(NC(=O)c4ccccc4)nc3C(F)(F)F)cs2)cc(C(F)(F)F)c1', 'Phosphatidylinositol 4-kinase beta (Homo sapiens)', 'Not Active'),
  ('CC(C)(C)C(=O)Nc1nc(C(F)(F)F)c(-c2csc(Nc3cc(C(=O)O)cc(C(=O)O)c3)n2)s1', 'Phosphatidylinositol 4-kinase beta (Homo sapiens)', 'Not Active'),
  ('CC(C)(C)C(=O)Nc1nc(C(F)(F)F)c(-c2csc(Nc3cccc(C(F)(F)F)n3)n2)s1', 'Phosphatidylinositol 4-kinase beta (Homo sapiens)', 'Not Active'),
  ('O=C(O)c1cc(Nc2nc(-c3sc(NC(=O)c4ccccc4)nc3C(F)(F)F)cs2)cc(C(=O)O)c1', 'Phosphatidylinositol 4-kinase beta (Homo sapiens)', 'Not Active'),
  ('O=C(Nc1nc(C(F)(F)F)c(-c2csc(Nc3cccc(C(F)(F)F)c3)n2)s1)c1ccccc1', 'Phosphatidylinositol 4-kinase beta (Homo sapiens)', 'Not Active');

====

System: Staphylococcus aureus
Assay: Antibacterial activity against Staphylococcus aureus ATCC 25923 assessed as reduction in microbial growth measured after 18 hrs by CLSI based broth microdilution method
Assay type: functional
ENDPOINT: MIC

INSERT INTO results (compound_structure, result_value) VALUES
  ('COC(=O)c1cc(Nc2nc(-c3sc(NC(=O)C(C)(C)C)nc3C(F)(F)F)cs2)cc(C(F)(F)F)c1', '> 32 µg/mL'),
  ('CC(C)(C)C(=O)Nc1nc(C(F)(F)F)c(-c2csc(Nc3ccc(O)c(C(=O)O)c3)n2)s1', '> 32 µg/mL'),
  ('O=C(Nc1nc(C(F)(F)F)c(-c2csc(Nc3ccc(O)c(C(=O)O)c3)n2)s1)c1ccccc1', '16 µg/mL'),
  ('O=C(O)c1cc(Nc2nc(-c3sc(NC(=O)c4ccccc4)nc3C(F)(F)F)cs2)cc(C(=O)O)c1', '> 32 µg/mL');

====

Test system: Staphylococcus aureus
Assay: Antibacterial activity against methicillin-resistant Staphylococcus aureus ATCC 43300 assessed as reduction in microbial growth measured after 18 hrs by CLSI based broth microdilution method
Type: functional
Here the recorded MIC is given for each entry.
ENDPOINT: MIC (µg/mL)

INSERT INTO assay_data (compound_structure, relation_qualifier, result_value) VALUES
  ('CC(C)(C)C(=O)Nc1nc(C(F)(F)F)c(-c2csc(Nc3cccc(C(F)(F)F)c3)n2)s1', '=', 4),
  ('O=C(O)c1cc(Nc2nc(-c3sc(NC(=O)c4ccccc4)nc3C(F)(F)F)cs2)cc(C(F)(F)F)c1', '>', 64),
  ('O=C(Nc1nc(C(F)(F)F)c(-c2csc(Nc3ccc(O)c(C(=O)O)c3)n2)s1)c1ccccc1', '=', 32),
  ('CC(C)(C)C(=O)Nc1nc(C(F)(F)F)c(-c2csc(Nc3cc(C(=O)O)cc(C(F)(F)F)c3)n2)s1', '=', 8),
  ('CC(C)(C)C(=O)Nc1nc(C(F)(F)F)c(-c2csc(Nc3cccc(C(F)(F)F)n3)n2)s1', '=', 16);

====

Target: Phosphatidylinositol 4-kinase beta (Homo sapiens)
Assay: Inhibition of recombinant full length his tagged PI4KB (unknown origin) incubated for 10 mins in presence of ATP by ADP-glo kinase assay
Conditions: read-out: IC50
ENDPOINT: IC50

INSERT INTO assay_data (compound_structure, endpoint, result_value) VALUES
  ('CC(C)(C)C(=O)Nc1nc(C(F)(F)F)c(-c2csc(Nc3cccc(C(F)(F)F)c3)n2)s1', 'IC50', '> 50 µM');

====

Tested on: rhinovirus A16
Assay: microbe, parasite or virus in culture
Conditions: Rhinovirus A, HeLa, 48 h
Description: Antiviral activity against Human rhinovirus 16 infected in human HeLa cells assessed as inhibition of viral replication measured after 48 hrs
ENDPOINT: IC50 (nM)

INSERT INTO results (compound_structure, endpoint, readout_unit, result_value) VALUES
  ('COC(=O)c1cc(Nc2nc(-c3sc(NC(=O)C(C)(C)C)nc3C(F)(F)F)cs2)cc(C(F)(F)F)c1', 'IC50', 'nM', 250),
  ('CC(C)(C)C(=O)Nc1nc(C(F)(F)F)c(-c2csc(Nc3cccc(C(F)(F)F)c3)n2)s1', 'IC50', 'nM', 1820),
  ('CC(C)(C)C(=O)Nc1nc(C(F)(F)F)c(-c2csc(Nc3cc(C(=O)O)cc(C(F)(F)F)c3)n2)s1', 'IC50', 'nM', 9520),
  ('O=C(Nc1nc(C(F)(F)F)c(-c2csc(Nc3cccc(C(F)(F)F)c3)n2)s1)c1ccccc1', 'IC50', 'nM', 490);

====

Assay: Cytotoxicity against african green monkey Vero E6 cells assessed as reduction in cell viability by MTT assay
Assay type: toxicity, cell-based
Details: chlorocebus sabaeus, Vero E6 cells (Vero C1008)
ENDPOINT: CC50

INSERT INTO assay_data (compound_structure, endpoint, result_value) VALUES
  ('O=C(O)c1cc(Nc2nc(-c3sc(NC(=O)c4ccccc4)nc3C(F)(F)F)cs2)cc(C(=O)O)c1', 'CC50', '> 50 µM'),
  ('O=C(O)c1cc(Nc2nc(-c3sc(NC(=O)c4ccccc4)nc3C(F)(F)F)cs2)cc(C(F)(F)F)c1', 'CC50', '> 50 µM'),
  ('CC(C)(C)C(=O)Nc1nc(C(F)(F)F)c(-c2c[nH]c(Nc3cccc(C(F)(F)F)c3)n2)s1', 'CC50', '> 50 µM'),
  ('COC(=O)c1cc(Nc2nc(-c3sc(NC(=O)C(C)(C)C)nc3C(F)(F)F)cs2)cc(C(F)(F)F)c1', 'CC50', '> 50 µM'),
  ('CC(C)(C)C(=O)Nc1nc(C(F)(F)F)c(-c2csc(Nc3cccc(C(F)(F)F)c3)n2)s1', 'CC50', '> 50 µM'),
  ('CC(C)(C)C(=O)Nc1nc(C(F)(F)F)c(-c2csc(Nc3ccc(O)c(C(=O)O)c3)n2)s1', 'CC50', '> 50 µM'),
  ('CC(C)(C)C(=O)Nc1nc(C(F)(F)F)c(-c2csc(Nc3cc(C(=O)O)cc(C(=O)O)c3)n2)s1', 'CC50', '> 50 µM'),
  ('O=C(Nc1nc(C(F)(F)F)c(-c2csc(Nc3ccc(O)c(C(=O)O)c3)n2)s1)c1ccccc1', 'CC50', '> 50 µM'),
  ('CC(C)(C)C(=O)Nc1nc(C(F)(F)F)c(-c2csc(Nc3cccc(C(F)(F)F)n3)n2)s1', 'CC50', '46 µM'),
  ('COC(=O)c1cc(Nc2nc(-c3sc(NC(=O)c4ccccc4)nc3C(F)(F)F)cs2)cc(C(F)(F)F)c1', 'CC50', '> 50 µM'),
  ('O=C(Nc1nc(C(F)(F)F)c(-c2csc(Nc3cccc(C(F)(F)F)c3)n2)s1)c1ccccc1', 'CC50', '35.9 µM'),
  ('CC(C)(C)C(=O)Nc1nc(C(F)(F)F)c(-c2csc(Nc3cc(C(=O)O)cc(C(F)(F)F)c3)n2)s1', 'CC50', '> 50 µM');
